Tested on: NCI-H226
protocol: NCI cytotoxicity screen
Format: cell-based, human
condition notes: 10.0 μM one dose
Output 1.0 for GI % not less than 20%; output 0.0 otherwise.

Field: example entries. Status: answers known.
molecule	answer label
NS(=O)(=O)c1ccc(Cn2c(SCC(=O)NN=Cc3ccccc3O)nc3ccccc3c2=O)cc1	1.0
COc1cc(C=NNC(=O)CSc2nc3ccccc3c(=O)n2Cc2ccc(S(N)(=O)=O)cc2)cc(OC)c1OC	0.0
Cc1ccc(C=NNC(=O)CSc2nc3ccccc3c(=O)n2Cc2ccc(S(N)(=O)=O)cc2)cc1	0.0

Does the reported GI % for CCN(CC)c1ccc(C=NNC(=O)CSc2nc3ccccc3c(=O)n2Cc2ccc(S(N)(=O)=O)cc2)c(O)c1 fall at or above the 20% mark?
1.0

Please tell me: is the molecule Cc1ccc(NC(=O)c2ccc(CN3CCN(C)CC3)cc2)cc1Nc1nccc(-c2cccnc2)n1 [Imatinib, reference compound] at or over 20% in terms of GI %?
0.0

Hey, just so you know, these numbers are from paper PMC11702208.
